Assay: soluble on expression in E. coli; label from the status in PepcDB or PDB records

item sequence: MGHHHHHHSHMYKGRTVLQKVVGHPSCTFLYGPPDPAVRATDPQQVAFPSPAELPDQKQLRYTEELLRHVAPGLHLELRGPQLWARRMGKCKVYWEVGGPPGSASPSTPACLLPRNCDTPIFDFRVFFQELVEFRARQRRGSPRYTIYLGFGQDLSAGRPKEKSLVLVKLEPWLCRVHLEGTQREGVSSLDSSSLSLCLSSANSLYDDIECFLMELEQPA
soluble on expression in E. coli: not soluble

item sequence: SLEKELKVITIDELKKYIRNNEEDKIEEVDVVTSATCGIMSGTAGIFHIPFNEVFKRAEEIYLNDIKGVVGICPNEFLGKVDAIFYGEVGFLFKDLVKGKVVEAKAISEGKIYKNEITIDDLPTAKMIGTRMAFKNYTAITNLSDEEVNTIFHRLPLKKGEASFSGCGMLNPLENMVIKDEKDVVGKKALLNGAEAIILGFGTRASIEKPNLMMSADMKDMDAYYLGGFVTSNGIEIYNTIAVPIKVDEHKEALKKLDKDITLPLVNIFGREIIDIGSYAEVWENVDLRPKIYQDKCKNCRECLVEKYCPTFAIKRENGKIKITEDCFGCGVCNICPYGVFKTKLGSVCGIPITCRQSDRKRALKLAKELKKKIERGEFKI
soluble on expression in E. coli: not soluble

* * *

Experiment: soluble on expression in E. coli; label from the status in PepcDB or PDB records
experimental readout: soluble on expression in E. coli

item sequence: MKAERILGALYGQALGDAMGMPSELWPRTRVKAHFGWIDRFLPGPKENNAACYFNRAEFTDDTAMALCLADALLECEGNIDPEIIGRNILAWAERFDAFNKNVLGPTSKIALNAIRDGKPIAALENNGVTNGAAMRVSPLGCLLPPTNLTAFIAEVALASSPTHKSDLAVAGAVVVAWAVSRAVNGDTWQSIADSLPAVAHQAQTARITTFSASLSARLELALNIVRHADGVESASEQLYQIIGAGTSTIESVPCAIAMVELANTDPNRCAVLCANLGGDTDTIGAMATAICGALHGVSAINPQLKQTLDEVNQLDFARYAVALASYRQRREALLEHHHHHH
soluble on expression in E. coli: soluble
//
item sequence: GPLGSPEFMEGVLYKWTNYLTGWQPRWFVLDNGILSYYDSQDDVCKGSKGSIKMAVCEIKVHSADNTRMELIIPGEQHFYMKAVNAAERQRWLVALGSSKASLTDTRT
soluble on expression in E. coli: soluble
//
item sequence: MKKTPLYEAHLRLGARMVDFAGYLLPLQYTSIVEEHLAVRRAVGVFDVSHMGEFLVRGKEALAFLQWATANDAGKLKVGRAQYSMLPNERGGVVDDIYLYRLGEEEYLMVVNAANIAKDLAHLQALAKGFRVELEDASERTALLALQGPKAASLLQGLTDLDLSQKRKNDVFPARVAGRPARLARTGYTGEDGFELFLAPEDAEPVFLALVEAGAKPAGLGARDSLRLEAGFPLYGHELTEETNPLCTPWAWVVKKEKAFLGKEAMLAQACRERLVGLVLEGGIPREGYRVLSGGRPVGRVTSGGYSPLLQRGIALAYVEEGAEGPFQVEVRGRAVPAALSPLPFVPLK
soluble on expression in E. coli: soluble
//
item sequence: MGSDKIHHHHHHMLARDKSNLKIEEIRMHKHHEIHRVKPLMPALCRIRQGKKVINWETHSLTVDNNQIILFPCGYEFYIVNYPEAGLYLAEMLYYPIDLIEKFQKFYAITDQIRNTTGFCLPQNPELIYCWEQLKTSISRGFSTQIQEHLAMGVLLSLGAHHVNCLLLSDSKQSLISRCYNLMLSEPRTKWTANKVARYLYISVSTLHRRLASEGISFQSILDDVRLNNALSCYTNDSKTHQRDCQGKWLQVSFSFY
soluble on expression in E. coli: not soluble
//
item sequence: MLARLLLSFSVVLTAFGVGAAEVDKTQPYQMMKQVAEVTFARLKAEQPKIKQDPNLLKVIVEQELMPYVNDRYAALKLLGPNLKGAKREDVLEFVDAFRAYLIASYAQVLTQYSDQQIEFGPEPKLDDSKRITSIKVEIIDAPRPNIKLEFKLRKDNKTDEWEAFDMVAEGISLLSSKQSEWNTKIRQDGILAVAQDLEKLAAEPIRFEAKK
soluble on expression in E. coli: soluble

# context switch: different sequence, same soluble on expression in E. coli
Q: For the sequence MTSAYFGVAGGGNAGAQSAYFGVGGGPAGGGGGNKSAGGGGAPPPGVSCYLGAGAGGAASGSQSAYFGVGGGPVGGGGGGGAPPAASNDAGYFATPPAAPAGGSSTMTAVGGAPRGASTMTAVGGAPVGGSSTMTAVGGAPSGASTMTAIGGAPRGASTMTAVGGAPMGGGSTMTAVGGAPSGASTMTAVGGAPSGASTMTAIGGAPRGASTMTAVGGAPMGGSSTMTAVGGAPIGGSSTMTAVGGAPRGASTMTAVGGAPGGASTMTAMGGGPSAFGGAPPPPSGSAMGGGGGGGATSAYFGVGSGAMGGGGAGAQSAYFGVGGGPVGGGGGGAKSGGGGGGIPGQSVYMGAGGGGGGGGGGGATSAYFAPR , report soluble on expression in E. coli.
Result: not soluble

All figures here come from the DeepSol protein solubility set.
